Below, each entry is listed alongside its reported inhibition.
molecular target: Toll-like receptor 9 (Homo sapiens) + Myeloid differentiation primary response protein MyD88 (Homo sapiens) (UniProt Q9NR96+Q99836); assay: disruptors of TLR9 binding to MyD88 – cell-based, CHO, BLA complementation, fluorescence, primary screen (AID 504734); conditions: CHO BLA complementation TLR9-MyD88, CCF4 FRET ratio; at 4.98 µM; active compounds read high;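 note: 0% = DMSO only wells and 100% = clavulanate BLA inhibitor control wells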
Sequence (Q99836 whole entry, looked up): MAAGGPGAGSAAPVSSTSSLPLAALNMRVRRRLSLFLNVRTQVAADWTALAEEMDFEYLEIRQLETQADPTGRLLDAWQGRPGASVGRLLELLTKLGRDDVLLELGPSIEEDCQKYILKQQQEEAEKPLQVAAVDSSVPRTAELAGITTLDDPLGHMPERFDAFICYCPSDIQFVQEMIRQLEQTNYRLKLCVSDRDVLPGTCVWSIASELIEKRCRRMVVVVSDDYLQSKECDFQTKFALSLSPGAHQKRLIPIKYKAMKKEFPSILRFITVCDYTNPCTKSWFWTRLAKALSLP
Sequence (Q9NR96 whole entry, looked up): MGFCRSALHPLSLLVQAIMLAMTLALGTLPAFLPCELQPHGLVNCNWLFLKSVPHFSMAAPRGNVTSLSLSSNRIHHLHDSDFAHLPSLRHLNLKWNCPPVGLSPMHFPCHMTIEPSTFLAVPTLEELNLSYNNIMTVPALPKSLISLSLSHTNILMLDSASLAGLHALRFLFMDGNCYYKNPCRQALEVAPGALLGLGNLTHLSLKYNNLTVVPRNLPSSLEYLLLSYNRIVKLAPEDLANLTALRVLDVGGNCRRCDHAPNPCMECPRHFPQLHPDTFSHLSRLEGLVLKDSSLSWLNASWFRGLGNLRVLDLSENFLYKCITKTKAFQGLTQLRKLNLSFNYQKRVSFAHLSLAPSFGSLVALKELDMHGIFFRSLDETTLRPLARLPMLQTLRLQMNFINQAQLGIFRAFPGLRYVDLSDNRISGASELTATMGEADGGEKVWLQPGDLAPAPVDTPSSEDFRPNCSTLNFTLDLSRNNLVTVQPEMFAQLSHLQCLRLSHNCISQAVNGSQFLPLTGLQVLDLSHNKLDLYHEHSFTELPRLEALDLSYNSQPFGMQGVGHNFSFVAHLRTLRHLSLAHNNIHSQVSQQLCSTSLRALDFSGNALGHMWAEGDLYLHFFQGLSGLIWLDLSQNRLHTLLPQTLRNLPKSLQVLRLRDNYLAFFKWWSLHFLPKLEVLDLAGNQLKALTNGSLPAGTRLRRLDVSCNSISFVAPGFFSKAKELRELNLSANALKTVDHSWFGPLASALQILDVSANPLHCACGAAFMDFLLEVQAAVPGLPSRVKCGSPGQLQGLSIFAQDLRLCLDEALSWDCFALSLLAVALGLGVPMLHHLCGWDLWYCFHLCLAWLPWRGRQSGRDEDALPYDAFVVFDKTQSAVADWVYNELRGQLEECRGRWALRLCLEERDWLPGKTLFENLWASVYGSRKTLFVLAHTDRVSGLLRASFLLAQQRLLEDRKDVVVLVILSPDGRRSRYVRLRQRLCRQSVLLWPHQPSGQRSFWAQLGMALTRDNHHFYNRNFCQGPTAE
In all, about 340,000 compounds went through this assay and about 730 (0.21%) were called active. This excerpt belongs to a sample that is enriched for actives.
measured.metric: inhibition (%)

{"molecule": "Nc1cc(C(=O)N2CCN(c3ccccc3Cl)CC2)ccc1N1CC2CC(C1)c1cccc(=O)n1C2 (stereo unspecified)", "units": "%", "endpoint.result": -8.79}
{"molecule": "Cc1ccc(C(=O)NC(C)C(c2cccs2)N2CCOCC2)cc1C (stereo unspecified)", "units": "%", "endpoint.result": -1.7}
{"molecule": "O=[N+]([O-])c1ccc(N/N=C/c2ccccc2)cc1", "units": "%", "endpoint.result": 21.1}
{"molecule": "Cc1nc2cc(NC(=O)Nc3cccc(F)c3)ccc2n1C", "units": "%", "endpoint.result": 4.9}
{"molecule": "COC(=O)N(C)C[C@@H]1OCc2cnnn2CCCC(=O)N([C@@H](C)CO)C[C@@H]1C", "units": "%", "endpoint.result": -7.29}
{"molecule": "C[C@@H]1CN([C@@H](C)CO)C(=O)c2cc(Br)cnc2O[C@@H]1CN(C)C(=O)C1CCCCC1", "units": "%", "endpoint.result": 4.79}
{"molecule": "COc1cc(C=NC2CCCCC2)ccc1O", "units": "%", "endpoint.result": -10.8}
{"molecule": "Cc1cc(Nc2ccc(C)c(C)c2)n2ncnc2n1", "units": "%", "endpoint.result": -6.42}
{"molecule": "CCOC(=O)N1CCN(Cc2nnc(-c3ccccc3Cl)o2)CC1", "units": "%", "endpoint.result": 7.73}
{"molecule": "S=C(Nc1ccccc1)Nc1ccc2ccccc2c1", "units": "%", "endpoint.result": -11.2}
{"molecule": "Nc1cccc2c1C(=O)N(Cc1nnc(-c3ccccc3Br)o1)C2=O", "units": "%", "endpoint.result": 21.2}

* * *

target: Toll-like receptor 9 (Homo sapiens) + Myeloid differentiation primary response protein MyD88 (Homo sapiens) (UniProt Q9NR96+Q99836); test: disruptors of TLR9 binding to MyD88 – cell-based, CHO, BLA complementation, fluorescence, primary screen (AID 504734); details: CHO BLA complementation TLR9-MyD88, CCF4 FRET ratio; at 4.98 µM;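 note: 0% = DMSO only wells and 100% = clavulanate BLA inhibitor control wells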
In all, about 340,000 compounds went through this assay and about 730 (0.21%) were called active.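 The calls were made as follows: active = inhibition above the mean over all tested compounds plus 3 SD (cut at about 21% in these data); inactive = the rest.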 Shown is part of a subset that was picked to be rich in actives.
Outcomes: label 1 for active, label 0 for inactive

{"compound": "Cc1nnc(SC(C)C(=O)c2c[nH]c3ccccc23)n1C1CC1 (stereo not given)", "qualitative.label": "label 0"}
{"compound": "C[C@H](CO)N1C[C@H](C)[C@@H](CN(C)C(=O)C2CCCCC2)OCc2cnnn2CCCC1=O", "qualitative.label": "label 0"}
{"compound": "Cc1cc2oc3ccc(NCCC4CCCN4C)cc3c(=O)c2cc1C (stereo not given)", "qualitative.label": "label 1"}
{"compound": "CN=c1scc(-c2cc(OC)ccc2OC)n1/N=C/c1c(C)[nH]c2ccccc12", "qualitative.label": "label 0"}
{"compound": "O=S(=O)(c1cccc(C(F)(F)F)c1)N1c2ccccc2-n2cccc2C1c1cccnc1 (stereo not given)", "qualitative.label": "label 0"}

* * *

molecular target: Toll-like receptor 9 (Homo sapiens) + Myeloid differentiation primary response protein MyD88 (Homo sapiens) (UniProt Q9NR96+Q99836); assay: disruptors of TLR9 binding to MyD88 – cell-based, CHO, BLA complementation, fluorescence, primary screen (AID 504734); conditions: CHO BLA complementation TLR9-MyD88, CCF4 FRET ratio; at 4.98 µM; active compounds read high;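 note: 0% = DMSO only wells and 100% = clavulanate BLA inhibitor control wells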
Screen size: about 340,000 compounds; about 730 (0.21%) were called active. This excerpt belongs to a sample that is enriched for actives.

{"molecule": "NC1=CC(=O)C(=O)c2cccnc21", "units": "%", "inhibition": -3.3}
{"molecule": "COc1ccccc1C1CCN(c2ccc([N+](=O)[O-])cn2)CC1", "units": "%", "inhibition": -2.92}
{"molecule": "COc1ccc([C@H]2N[C@]3(CCCN(CC4CCCCC4)C3=O)[C@H]3C(=O)N(C)C(=O)[C@@H]23)cc1", "units": "%", "inhibition": 1.4}
{"molecule": "COc1ccc(-c2nc3cnccn3c2NC2CCCCC2)cc1-c1cccc(Cl)c1", "units": "%", "inhibition": 40.9}
{"molecule": "COc1ccc(S(=O)(=O)N2CCCCC2)cc1C(=O)NC1CCS(=O)(=O)C1 (stereo unspecified)", "units": "%", "inhibition": -5.76}
{"molecule": "CC1(C)CC(=O)NC=C(c2ccccc2)C1", "units": "%", "inhibition": -4.24}
{"molecule": "CC1(C)CC(=O)C(C2c3ccccc3S(=O)(=O)c3ccccc32)C(=O)C1", "units": "%", "inhibition": 22.1}
{"molecule": "Cc1cccc2cc3c(N)c(C(=O)N4CCCc5ccccc54)sc3nc12", "units": "%", "inhibition": 32.5}
{"molecule": "O=[N+]([O-])c1ccc(C(S(=O)(=O)Cc2ccccc2)S(=O)(=O)Cc2ccccc2)cc1", "units": "%", "inhibition": 2.65}
{"molecule": "COc1ccc(-c2cnc(SCCNC(=O)c3ccc4c(c3)OCO4)[nH]2)cc1", "units": "%", "inhibition": -7.86}
{"molecule": "COc1ccc(-c2nc3cnccn3c2NC(C)(C)CC(C)(C)C)cc1O", "units": "%", "inhibition": -0.94}

* * *

target: Toll-like receptor 9 (Homo sapiens) + Myeloid differentiation primary response protein MyD88 (Homo sapiens) (UniProt Q9NR96+Q99836); experiment: disruptors of TLR9 binding to MyD88 – cell-based, CHO, BLA complementation, fluorescence, primary screen (AID 504734); conditions: CHO BLA complementation TLR9-MyD88, CCF4 FRET ratio; at 4.98 µM; active compounds read high;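 note: 0% = DMSO only wells and 100% = clavulanate BLA inhibitor control wells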
About 730 (0.21%) of roughly 340,000 compounds were called active. This excerpt belongs to a sample that is enriched for actives.

{"chemical.structure": "CCCCCCN1C[C@@H](O)[C@H](n2cc(COC(=O)c3ccccc3)nn2)C[C@@H]1c1ccc(Cl)cc1", "inhibition / %": -2.39}
{"chemical.structure": "O=[N+]([O-])c1ccc(N=NNc2ccc([N+](=O)[O-])cc2)cc1", "inhibition / %": -10.5}
{"chemical.structure": "O=[N+]([O-])c1cccc(/C=N/Nc2ncc(Br)cn2)c1", "inhibition / %": -10.4}
{"chemical.structure": "Cc1cccc(COc2ccccc2/C=N/Nc2ccc([N+](=O)[O-])cc2)c1", "inhibition / %": 21.7}
{"chemical.structure": "S=C(NN=Cc1ccccn1)Nc1ccccn1", "inhibition / %": 10.2}
{"chemical.structure": "O=C(CSc1ncn[nH]1)Nc1nc2c(F)c(F)c(F)cc2s1", "inhibition / %": -0.11}

* * *

// inhibition lookup, one value per entry
target: Toll-like receptor 9 (Homo sapiens) + Myeloid differentiation primary response protein MyD88 (Homo sapiens) (UniProt Q9NR96+Q99836); assay: disruptors of TLR9 binding to MyD88 – cell-based, CHO, BLA complementation, fluorescence, primary screen (AID 504734); conditions: CHO BLA complementation TLR9-MyD88, CCF4 FRET ratio; at 4.98 µM; active compounds read high;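 note: 0% = DMSO only wells and 100% = clavulanate BLA inhibitor control wells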
The campaign covered roughly 340,000 compounds. About 730 (0.21%) were called active. This is one part of a sample in which actives are shown more often than they occur.

{"molecule": "O=C(Nc1ccccc1Cl)/C(Cl)=C(\\Cl)S(=O)c1ccccc1 (stereo not given)", "inhibition": "23.8% (active)"}
{"molecule": "Cc1noc(C)c1NC(=O)N(C)C[C@@H]1Oc2cc(Br)ccc2S(=O)(=O)N([C@@H](C)CO)C[C@H]1C", "inhibition": "6.19% (inactive)"}
{"molecule": "CCN1CCCC1CNC(=O)c1ccc2c(c1)NC(=O)/C(=C\\c1ccccc1F)S2 (stereo not given)", "inhibition": "5.07% (inactive)"}
{"molecule": "COc1ccc(-c2cc(C(F)(F)F)nc(S(C)(=O)=O)n2)cc1OC", "inhibition": "27.6% (active)"}
{"molecule": "CCN(CC)C(=O)C(C)N1c2cccc3cccc(c23)S1(=O)=O (stereo not given)", "inhibition": "4.23% (inactive)"}
{"molecule": "COc1ccc(N)cc1NC(=O)CN1CCOCC1", "inhibition": "3.79% (inactive)"}
{"molecule": "CCOC(=O)C(C(=O)c1ccccc1)C(c1ccccc1)c1nccc2ccccc12 (stereo not given)", "inhibition": "-3.27% (inactive)"}
{"molecule": "O=C(CCN1CCN(C/C=C/c2ccccc2)CC1)Nc1ccccc1Cl", "inhibition": "2.63% (inactive)"}
{"molecule": "Cc1ccc(S(=O)(=O)N2CCCCC2)cc1NC(=O)CCNC(=O)c1ccccc1Cl", "inhibition": "-7.91% (inactive)"}
{"molecule": "Cn1ncc([N+](=O)[O-])c1C(=O)Nc1cc(Cl)ccc1Cl", "inhibition": "-11.5% (inactive)"}
{"molecule": "COc1ccc(-c2cc(-c3ccc(N)cc3)nc(N)c2C#N)cc1OC", "inhibition": "-1.14% (inactive)"}
{"molecule": "Cc1ccc(Cc2c(-c3ccc(C)cc3)nc3c4ccccc4ccn23)cc1", "inhibition": "0.71% (inactive)"}
{"molecule": "CCN(C(=O)Nc1cccc2ccccc12)c1ccccc1", "inhibition": "-15.1% (inactive)"}
{"molecule": "Cc1ccc(-c2ccc(CN3C(C(C)C)C(=O)N(Cc4cn(CCC5OCCCO5)nn4)CCS3(=O)=O)cc2)cc1 (stereo not given)", "inhibition": "-5.52% (inactive)"}
{"molecule": "O=C1C(Cl)=C(Oc2ccccc2)C(=O)c2ccccc21", "inhibition": "56.9% (active)"}
